- targetOrTestSystem: Casein kinase II subunit alpha (Homo sapiens, UniProt P68400)
- Sequence (P68400 whole entry): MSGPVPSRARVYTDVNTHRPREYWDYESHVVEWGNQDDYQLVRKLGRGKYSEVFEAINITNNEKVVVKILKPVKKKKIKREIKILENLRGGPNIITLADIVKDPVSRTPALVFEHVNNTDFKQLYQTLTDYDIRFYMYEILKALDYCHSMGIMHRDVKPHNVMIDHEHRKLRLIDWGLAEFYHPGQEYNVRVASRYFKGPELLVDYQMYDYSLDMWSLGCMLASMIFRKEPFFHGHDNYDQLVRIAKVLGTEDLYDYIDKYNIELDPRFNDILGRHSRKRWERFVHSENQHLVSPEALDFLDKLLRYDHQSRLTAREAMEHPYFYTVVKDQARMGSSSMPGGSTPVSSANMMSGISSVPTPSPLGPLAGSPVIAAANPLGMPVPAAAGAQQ
- assay: Inhibition of human CK2 alpha catalytic subunit expressed in Escherichia coli BL21 (DE3) assessed as [32P]gamma-ATP incorporation into P2B substrate after 15 mins by scintillation counting
measure: Ki (nM)
Write the value in nM as a bare number.

Worked cases, answers included:
O=C(O)CSc1nc2c(I)c(I)c(I)c(I)c2[nH]1 = 110
O=C(O)CCSc1nc2c(Br)c(Br)c(Br)c(Br)c2[nH]1 = 116

API: value(readout=Ki, system=Casein kinase II subunit alpha (Homo sapiens, UniProt P68400)) for record O=C(O)CCCSc1nc2c(Br)c(Br)c(Br)c(Br)c2[nH]1
77

----------
Measured Ki values are reported for all entries that follow.
- targetOrTestSystem: Casein kinase II subunit alpha' (Homo sapiens)
- Sequence (P19784 whole entry): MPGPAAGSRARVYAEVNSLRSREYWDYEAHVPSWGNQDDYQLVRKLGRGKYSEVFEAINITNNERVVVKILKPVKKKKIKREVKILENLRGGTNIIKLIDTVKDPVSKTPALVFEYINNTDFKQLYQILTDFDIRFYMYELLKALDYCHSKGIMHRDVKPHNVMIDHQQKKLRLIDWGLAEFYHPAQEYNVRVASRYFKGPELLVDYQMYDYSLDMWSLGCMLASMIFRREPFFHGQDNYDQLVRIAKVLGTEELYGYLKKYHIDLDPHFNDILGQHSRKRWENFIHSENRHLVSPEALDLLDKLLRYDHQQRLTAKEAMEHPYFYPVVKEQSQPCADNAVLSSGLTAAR
- assay: Inhibition of human CK2 alpha' catalytic subunit expressed in Escherichia coli […] (DE3) assessed as [33P]gamma-ATP incorporation into RRRADDSDDDDD substrate after 15 mins by scintillation counting
Write the value in nM as a bare number.

Worked cases, answers included:
O=C(O)CSc1nc2c(I)c(I)c(I)c(I)c2[nH]1 = 106
Cn1c(SCCC(=O)O)nc2c(Br)c(Br)c(Br)c(Br)c21 = 55
O=C(O)CSc1nc2c(Br)c(Br)c(Br)c(Br)c2[nH]1 = 49

Report Ki for O=C(O)CCCn1cnc2c(Br)c(Br)c(Br)c(Br)c21 please.
195
